Recorded values, source patent US7402548B2.

Test system: solgum
Assay text: Soil treatment test for upland field
Format: in vivo
Parameters: key: 0 = normal development, 5 = all killed
Measurement conditions: 500 g/ha, 3 weeks, glass house 25° C.
Procedure: The herbicidal effects are evaluated according to the following 6 ranks as compared with non-treated district. (0: normal development, 1: Less damaged, 2: Slightly damaged, 3: Moderately damaged, 4: Severely damaged, 5: All killed). Incidentally, “-” in the column means not investigated. […] The herbicidal effects were evaluated according to the evaluation method described in the above (1).
Recorded measurements of Effects Solgum, one per entry
Attribute measured: Effects Solgum

| Molecule | Meas value |
| --- | --- |
| Fc1ccc2nc(-c3cccc(Oc4cccc(C(F)(F)F)c4)n3)oc2c1 [I-a-6] | 0 |
| CCCC(=Cc1cccc(C(F)(F)F)c1)c1nc2cc(C#N)ccc2o1 [I-c-83] | 1 |
| CC/C(=C\c1ccc(F)c(C(F)(F)F)c1)c1nc2cc(Cl)ccc2o1 [I-c-54] | 2 |
| FC(F)(F)c1cccc(Oc2cccc(-c3nc4ccccc4o3)n2)c1 [I-a-1] | 2 |
| CCC(=Cc1cccc(C(F)(F)F)c1)c1nc2cc(C(F)(F)F)ccc2o1 [I-c-86] | 1 |
| FC(F)(F)c1cccc(Oc2cccc(-c3nc4cc(C(F)(F)F)ccc4o3)n2)c1 [I-a-13] | 0 |
| CCC(=Cc1cccc(C(F)(F)F)c1)c1nc2cc(C#N)ccc2o1 [I-c-81] | 2 |
| CC/C(=C\c1cccc(C(F)(F)F)c1)c1nc2cc(Cl)ccc2o1 [I-c-55] | 1 |
| CCCC(=Cc1cccc(C(F)(F)F)c1)c1nc2cc(C#N)c(F)cc2o1 [I-c-139] | 3 |
| COc1ccc2oc(-c3cccc(Oc4cccc(C(F)(F)F)c4)n3)nc2c1 [I-a-4] | 0 |
